test: Toxicity against african green monkey Vero cells; assay type: cell-based; conditions: chlorocebus sabaeus
value-type: CC50

Ask: Request the reported CC50 associated with C[C@H]1[C@@H](OCC(=O)CO)O[C@@H]2O[C@@]3(C)CC[C@H]4[C@H](C)CC[C@@H]1[C@@]24OO3
Result: > 13.3 µM

Ask: Request the reported CC50 associated with C[C@H]1[C@@H](Oc2cccc(N[C@@H]3[C@H](C)O[C@@H]4O[C@@]5(C)CC[C@H]6[C@H](C)CC[C@@H]3[C@@]46OO5)c2)O[C@@H]2O[C@@]3(C)CC[C@H]4[C@H](C)CC[C@@H]1[C@@]24OO3
Result: > 7.41 µM

Ask: Request the reported CC50 associated with C[C@@H]1CC[C@H]2[C@@H](C)C(=O)O[C@@H]3O[C@@]4(C)CC[C@@H]1[C@]32OO4
Result: > 1.68 µM
